These data points were gathered from patent US20180289766A1.

Biological target: T1, human galanin receptor 3 (hGalR3) (human, UniProt O60755 1-368)
T1 sequence (looked up): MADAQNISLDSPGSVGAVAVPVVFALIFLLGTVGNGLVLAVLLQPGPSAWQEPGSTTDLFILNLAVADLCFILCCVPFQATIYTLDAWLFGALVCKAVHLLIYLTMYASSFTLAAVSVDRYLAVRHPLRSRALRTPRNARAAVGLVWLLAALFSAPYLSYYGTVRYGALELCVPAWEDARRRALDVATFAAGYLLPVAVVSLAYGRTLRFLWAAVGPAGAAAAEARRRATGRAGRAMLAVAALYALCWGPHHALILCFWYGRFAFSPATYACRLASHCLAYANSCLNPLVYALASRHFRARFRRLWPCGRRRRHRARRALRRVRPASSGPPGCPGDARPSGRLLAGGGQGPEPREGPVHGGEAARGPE
Assay: cell-based or functional assay
Positions of bridges follow the written chain, without caps; N, C: chain ends. No end group written: not given here.
Measured Emax, receptor activation (SRE-Luc assay) by item
Measurement Label: Emax, receptor activation (SRE-Luc assay)

binder="Ac-CWTLNSAGYLLGCHAV-NH2 (disulfide 1-13) [LH201 (Ac)]" data_value="0.2 relative to hSPX Emax"
binder="NWTPQAMLYLKGCQ-NH2 [hSPX (C13)]" data_value="0.88 relative to hSPX Emax"
binder="CWTLNSAGYLLGCHAV-NH2 (disulfide 1-13; N-terminus assumed; SMILES CC(C)C[C@@H]1NC(=O)[C@H](CC(C)C)NC(=O)[C@H](Cc2ccc(O)cc2)NC(=O)CNC(=O)[C@H](C)NC(=O)[C@H](CO)NC(=O)[C@H](CC(N)=O)NC(=O)[C@H](CC(C)C)NC(=O)[C@H]([C@@H](C)O)NC(=O)[C@H](Cc2c[nH]c3ccccc23)NC(=O)[C@@H](N)CSSC[C@@H](C(=O)N[C@@H](Cc2c[nH]cn2)C(=O)N[C@@H](C)C(=O)N[C@H](C(N)=O)C(C)C)NC(=O)CNC1=O) [LH201]" data_value="0.55 relative to hSPX Emax"
